biological target: α7 nACh receptor C187A

| Compound | Kd / nM |
| --- | --- |
| Clc1ccc(C2CC3CCC2N3)cn1 (stereo not shown) [[^3H]epibatidine] | 60 |

----------
molecular target: α7 nACh receptor N104C; conditions: no saturable binding
pKd: −log10 of the molar value.

| Compound | pKd |
| --- | --- |
| Clc1ccc(C2CC3CCC2N3)cn1 (stereo not shown) [[^3H]epibatidine] | < 7.70 |

----------
biological target: α7 nACh receptor C186A

| Compound | Tested system | Unit of measure | Kd |
| --- | --- | --- | --- |
| Clc1ccc(C2CC3CCC2N3)cn1 (stereo not shown) [[^3H]epibatidine] | α7 nACh receptor C186A | nM | 33 |
